molecules and their reported T/C
# Tested on: L1210 leukemia ip in BDF1 mice, survival T/C
# testSummary: NCI In Vivo Anticancer Drug Screen. Data for tumor model L1210 Leukemia (intraperitoneal) in B6D2F1 (BDF1) mice
# conditionsUsed: endpoint: mean survival time; dose: 400.0 mg/kg/injection; schedule: Q04DX002 (ip); vehicle: saline; higher = longer survival
Toxic doses and inconclusive results are not listed.

Consider the following illustrative entries.
molecule: CN(C=O)c1ccccc1
T/C: 95 % of control
//
molecule: O=C(NCCCl)NC1CCCCC1O (configuration not stated)
T/C: 102 % of control
//
molecule: O=C(/C=C/c1ccc2c(c1)OCO2)c1ccc(OCc2ccccc2)cc1
T/C: 92 % of control
//
molecule: COc1ccc(COC(=O)Oc2ccc(C)cc2)cc1
T/C: 98 % of control
//
molecule: CCCCCOC(=O)C1OC1(CC)c1ccccc1 (configuration not stated)
T/C: 120 % of control
//
molecule: CCOCCOCCOC(C)Oc1ccccc1 (configuration not stated)
T/C: 104 % of control

Query molecule follows.
Problem: For the molecule "COc1cccc2c(=O)c(C(=O)O)c[nH]c12" , what T/C is on record?
Result: 100 % of control

* * *

# Tested on: L1210 leukemia ip in BDF1 mice, survival T/C
# testSummary: NCI In Vivo Anticancer Drug Screen. Data for tumor model L1210 Leukemia (intraperitoneal) in B6D2F1 (BDF1) mice
# conditionsUsed: endpoint: mean survival time; dose: 400.0 mg/kg/injection; schedule: Q01DX009 (ip); vehicle: Klucel (hydroxypropylcellulose) (HPC); higher = longer survival
Inconclusive results and toxic doses are left out.
compounds and their reported T/C

Consider the following illustrative entries.
compound: CC(=O)Nc1ccc(OC(=O)Nc2ccccc2Cl)cc1
T/C: 101 % of control

compound: CC1(C)C/C(=C\c2ccc(Br)cc2)C(=O)c2ccccc21
T/C: 101 % of control

compound: CSc1ccccc1C(=O)O
T/C: 100 % of control

compound: COc1ccc(CCC(C(=O)O)c2ccc(OC)c(OC)c2)cc1OC (stereo not drawn)
T/C: 101 % of control

compound: CN(C)c1ccc(C=O)c(Oc2ccccc2)c1
T/C: 106 % of control

Problem: For the compound "O=C1COc2ccc(Cl)cc2N1" , what T/C is on record?
Result: 119 % of control

Problem: Same lookup for "CCCNC(=O)Oc1cccc2cccnc12" , please.
Result: 95 % of control

Problem: Same lookup for "O=C/C(=C/c1ccccc1)c1ccccc1" , please.
Result: 95 % of control

* * *

# Tested on: L1210 leukemia ip in BDF1 mice, survival T/C
# testSummary: NCI In Vivo Anticancer Drug Screen. Data for tumor model L1210 Leukemia (intraperitoneal) in B6D2F1 (BDF1) mice
# conditionsUsed: endpoint: mean survival time; dose: 100.0 mg/kg/injection; schedule: Q04DX003 (ip); vehicle: saline with Tween-80; higher = longer survival
Toxic doses and inconclusive results are not listed.
assayMetric: T/C

Consider the following illustrative entries.
compound: CCCCCCCCCCCCCCCCOc1ccccc1C(C)=O
targetEntity: L1210 leukemia ip in BDF1 mice, survival T/C
T/C: 89 % of control
--
compound: CCOP(=S)(OCC)SC(C)C
targetEntity: L1210 leukemia ip in BDF1 mice, survival T/C
T/C: 97 % of control
--
compound: CCCCCCCCCCCCCCCC(=O)OCCCCCCCCCCC
targetEntity: L1210 leukemia ip in BDF1 mice, survival T/C
T/C: 100 % of control
--
compound: C=CC(C)C1CCC2(C)C3=C(C(=O)CC12C)C1(C)CCC(OC(C)=O)C(C)(C)C1=C(OC(C)=O)C3=O (configuration not stated)
targetEntity: L1210 leukemia ip in BDF1 mice, survival T/C
T/C: 91 % of control
--
compound: COC(=O)NC1CC=CCC1I (configuration not stated)
targetEntity: L1210 leukemia ip in BDF1 mice, survival T/C
T/C: 100 % of control
--
compound: Cc1cccc(C(C)(C)C)c1O
targetEntity: L1210 leukemia ip in BDF1 mice, survival T/C
T/C: 102 % of control

Problem: For the compound "O=C(O)COc1cc(Cl)c(Cl)cc1Cl" , what T/C is on record?
Result: 100 % of control

Problem: Same lookup for O=C(O)C(Br)C(Br)c1ccccc1 (configuration not stated) , please.
Result: 101 % of control

Problem: Same lookup for "COC(=O)c1ccc[n+](CC(=O)c2ccccc2)c1" , please.
Result: 95 % of control

Problem: Same lookup for C1=CC2C3C=CC(C3)C2C1 (configuration not stated) , please.
Result: 95 % of control

Problem: Same lookup for "CC(=O)Nc1c(Cl)c(Cl)c2c(c1Cl)Cc1cc(F)ccc1-2" , please.
Result: 101 % of control

Problem: Same lookup for NC(=O)CN1C(=O)C2C3CCC(O3)C2C1=O (configuration not stated) , please.
Result: 96 % of control

Problem: Same lookup for "COc1ccc(Cl)cc1NC(=O)OCC(Cl)(Cl)Cl" , please.
Result: 103 % of control
